Source of measurements: patent US20110177071A1

test.target: T1, human CD80-murine Ig fusion protein (human)
T1 construct: Bought (Ancell #510-820); also called hCD80-mIg; human CD80-murine IgG
T1 chain: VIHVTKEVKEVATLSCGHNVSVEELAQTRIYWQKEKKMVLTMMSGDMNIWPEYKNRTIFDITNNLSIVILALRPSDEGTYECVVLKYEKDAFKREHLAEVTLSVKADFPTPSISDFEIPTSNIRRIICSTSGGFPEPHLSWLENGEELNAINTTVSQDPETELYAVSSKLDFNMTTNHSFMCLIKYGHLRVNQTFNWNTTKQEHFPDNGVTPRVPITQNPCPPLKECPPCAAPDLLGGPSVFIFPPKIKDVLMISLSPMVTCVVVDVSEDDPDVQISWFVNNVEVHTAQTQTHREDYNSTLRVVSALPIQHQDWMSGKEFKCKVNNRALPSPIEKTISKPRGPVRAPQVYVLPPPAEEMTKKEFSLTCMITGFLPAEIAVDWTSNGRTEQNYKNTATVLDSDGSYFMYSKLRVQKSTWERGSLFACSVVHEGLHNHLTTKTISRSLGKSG
test.method.notes: SPR Biacore, hCD80-mIg captured
pKd: −log10 of the molar value.
value.kind: pKd

Before answering, review these 4 worked examples.
binder	pKd
D3-75-IgG2 (Fc fusion) MHVAQPAVVLASSRGIASFVCEYESPGKANEVRVTVLRQADSQVTEVCAMTYMKENELTFLDDPSCTGTFSGNQVNLTIQGLRAMDTGLYICKVELMYPPPYYLGIGNGTQIYVIDPEPCPDSDERKCCVECPPCPAPPVAGPSVFLFPPKPKDTLMISRTPEVTCVVVDVSHEDPEVQFNWYVDGVEVHNAKTKPREEQFNSTFRVVSVLTVVHQDWLNGKEYKCKVSNKGLPAPIEKTISKTKGQPREPQVYTLPPSREEMTKNQVSLTCLVKGFYPSDIAVEWESNGQPENNYKTTPPMLDSDGSFFLYSKLTVDKSRWQQGNVFSCSVMHEALHNHYTQKSLSLSPG	> 9.36
D28-IgG2 (Fc fusion) MHVAQPAVVLASSRGIASFVCEYEAPHKANEVRVTVLRQAGSQVTEVCAMTYMMEDELTFLDDPSCTGTFSGNQVNLTIQGLRAADTGLYICKVELMYPPPYYLGLGNGTQIYVIDPEPCPDSDERKCCVECPPCPAPPVAGPSVFLFPPKPKDTLMISRTPEVTCVVVDVSHEDPEVQFNWYVDGVEVHNAKTKPREEQFNSTFRVVSVLTVVHQDWLNGKEYKCKVSNKGLPAPIEKTISKTKGQPREPQVYTLPPSREEMTKNQVSLTCLVKGFYPSDIAVEWESNGQPENNYKTTPPMLDSDGSFFLYSKLTVDKSRWQQGNVFSCSVMHEALHNHYTQKSLSLSPG	8.76 to 9.36
D3-53-IgG2 (Fc fusion) MHVAQPAVVLASSRGIASFVCEYESPGKANEIRVTVLRQAGSQVTEVCAMTYMKGDELTFLDDPSCTGTFSGNQVNLTIQGLRAADTGLYICKVELMYPPPYYEGIGNGTQIYVIDPEPCPDSDERKCCVECPPCPAPPVAGPSVFLFPPKPKDTLMISRTPEVTCVVVDVSHEDPEVQFNWYVDGVEVHNAKTKPREEQFNSTFRVVSVLTVVHQDWLNGKEYKCKVSNKGLPAPIEKTISKTKGQPREPQVYTLPPSREEMTKNQVSLTCLVKGFYPSDIAVEWESNGQPENNYKTTPPMLDSDGSFFLYSKLTVDKSRWQQGNVFSCSVMHEALHNHYTQKSLSLSPG	> 9.36
D3-69-IgG2 (Fc fusion) MHVAQPAVVLASSRGIASFVCEYESPGKANEIRVTVLRQADSQVTEVCAMTYMKGDELTFLDDPSCTGTFSGNQVNLTIQGLRAMDTGLYICKVELMYPPPYYEGIGNGTQIYVIDPEPCPDSDERKCCVECPPCPAPPVAGPSVFLFPPKPKDTLMISRTPEVTCVVVDVSHEDPEVQFNWYVDGVEVHNAKTKPREEQFNSTFRVVSVLTVVHQDWLNGKEYKCKVSNKGLPAPIEKTISKTKGQPREPQVYTLPPSREEMTKNQVSLTCLVKGFYPSDIAVEWESNGQPENNYKTTPPMLDSDGSFFLYSKLTVDKSRWQQGNVFSCSVMHEALHNHYTQKSLSLSPG	> 9.36

Now consider a different binder.
Requested field: pKd. Item: D3-3-IgG2 (Fc fusion, also called D3-03-IgG2) MHVAQPAVVLASSRGIASFVCEYESPGKANEVRVTVLRQAGSQVTEVCAMTYMKGDELTFLDDPSCTGTFSGNQVNLTIQGLRAADTGLYICKVELMYPPPYYLGFGNGTQIYVIDPEPCPDSDERKCCVECPPCPAPPVAGPSVFLFPPKPKDTLMISRTPEVTCVVVDVSHEDPEVQFNWYVDGVEVHNAKTKPREEQFNSTFRVVSVLTVVHQDWLNGKEYKCKVSNKGLPAPIEKTISKTKGQPREPQVYTLPPSREEMTKNQVSLTCLVKGFYPSDIAVEWESNGQPENNYKTTPPMLDSDGSFFLYSKLTVDKSRWQQGNVFSCSVMHEALHNHYTQKSLSLSPG
8.76 to 9.36
